- testedTarget: human dopamine D2L receptors (long isoform) (Homo sapiens, UniProt P14416)
- Construct: expressed in transfected cells; host or cells: HEK-293
- Sequence (P14416 whole entry, canonical isoform): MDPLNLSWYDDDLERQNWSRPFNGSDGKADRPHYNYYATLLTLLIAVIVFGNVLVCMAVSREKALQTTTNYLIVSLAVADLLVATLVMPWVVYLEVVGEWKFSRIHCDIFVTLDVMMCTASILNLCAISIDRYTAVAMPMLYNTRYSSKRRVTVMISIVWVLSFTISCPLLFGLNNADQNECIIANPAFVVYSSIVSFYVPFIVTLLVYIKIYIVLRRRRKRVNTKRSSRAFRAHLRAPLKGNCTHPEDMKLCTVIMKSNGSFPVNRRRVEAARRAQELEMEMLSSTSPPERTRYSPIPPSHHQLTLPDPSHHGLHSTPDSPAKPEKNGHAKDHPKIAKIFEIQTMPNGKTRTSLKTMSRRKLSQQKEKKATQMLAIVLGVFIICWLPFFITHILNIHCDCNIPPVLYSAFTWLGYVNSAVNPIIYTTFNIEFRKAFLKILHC
- testDetails: Dopamine D2L receptor binding, [125I] iodospiperone displacement
- conditionSet: membranes of HEK-293 cells, 0.01 nM [125I] iodospiperone, 25° C., 60 minutes; read-out: Ki(D2)
Counter-ions that a name gives are not always drawn.
observedProperty: Ki (nM)

- Cn1c(SCCCN2CCN(c3cc(C4CC4)nc(C(C)(C)C)n3)CC2)nnc1-c1cnccn1 [Example 56, hydrochloride]: 51.2
- CC(C)(C)c1nc(C2CCC2)cc(N2CCN(CCCOc3ncccn3)CC2)n1.Cl [Example 27, hydrochloride]: 222
- C[C@@H](COc1ncccn1)CN1CCN(c2cc(C3CCC3)nc(C(C)(C)C)n2)CC1.Cl [Example 28, hydrochloride]: 296
- CC(C)(C)c1nc(C2CCC2)cc(N2CCN(CCCCNC(=O)c3ccc(F)cc3)CC2)n1.Cl [Example 10, hydrochloride]: 87
- Cn1c(OCCCN2CCN(c3cc(C4(C)CC4)nc(C(C)(C)C)n3)CC2)nnc1-c1ccccc1: 104
- CC(C)(C)c1nc(C2CCC2)cc(N2CCN(CCCSc3ncccn3)CC2)n1.Cl [Example 4, hydrochloride]: 113
- Cn1c(SCCCN2CCN(c3cc(C(C)(C)C)nc(C4CC4)n3)CC2)nnc1-c1cnccn1 [Example 57, hydrochloride]: 1610

====

- testedTarget: human dopamine D2L receptors (long isoform) (Homo sapiens, UniProt P14416)
- Construct: expressed in transfected cells; host or cells: HEK-293
- testDetails: Dopamine D2L receptor binding, [125I] iodospiperone displacement
- conditionSet: membranes of HEK-293 cells, 0.01 nM [125I] iodospiperone, 25° C., 60 minutes; read-out: Ki(D2)
observedProperty: Ki

• Cn1cnnc1SCCCN1CCN(c2cc(C(F)(F)F)nc(C3(C)CC3)n2)CC1 = 0.797 µM
• Cl.Cn1cccc1-c1nnc(SCCCN2CCN(c3cc(C4CCC4)nc(C(C)(C)C)n3)CC2)n1C [Example 66, hydrochloride] = 0.102 µM
• CC(C)(C)c1nc(C2CCC2)cc(N2CCN(CCCCNC(=O)c3cccnc3)CC2)n1 = 0.115 µM
• CC(C)(C)c1nc(C2CCC2)cc(N2CCN(CCCOc3ccnc(O)n3)CC2)n1 = 0.112 µM
• Cn1c(SCCCN2CCN(c3cc(C4CCC4)nc(C(C)(C)C)n3)CC2)nnc1C(F)(F)F = 0.405 µM
• CC(C)(C)c1nc(C2CCC2)cc(N2CCN(CCCOc3nccc(O)n3)CC2)n1 = 0.337 µM

====

# key: entry, value: Ki(D2)/Ki(D3)
- testedTarget: human dopamine D3 receptors (Homo sapiens, UniProt P35462)
- Construct: expressed in transfected cells; host or cells: HEK-293
- Sequence (P35462 whole entry): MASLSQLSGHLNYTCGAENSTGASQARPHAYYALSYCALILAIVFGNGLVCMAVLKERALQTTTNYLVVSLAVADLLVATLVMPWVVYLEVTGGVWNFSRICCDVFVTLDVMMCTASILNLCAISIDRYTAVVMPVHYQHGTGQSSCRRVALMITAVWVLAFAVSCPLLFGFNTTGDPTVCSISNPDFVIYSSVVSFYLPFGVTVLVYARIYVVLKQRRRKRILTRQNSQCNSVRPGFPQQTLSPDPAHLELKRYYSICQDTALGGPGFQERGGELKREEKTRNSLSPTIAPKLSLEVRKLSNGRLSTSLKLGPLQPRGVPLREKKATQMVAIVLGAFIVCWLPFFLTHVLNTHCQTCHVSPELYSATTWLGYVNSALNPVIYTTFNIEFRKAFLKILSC
- testDetails: Dopamine D3 receptor binding, [125I]-iodosulpride displacement
- conditionSet: selectivity ratio of receptor binding constants
Counter-ions that a name gives are not always drawn.
observedProperty: Ki(D2)/Ki(D3)

• CC(C)(C)c1nc(C2CCC2)cc(N2CCN(CCCOc3ccnc(O)n3)CC2)n1 = 93
• CC(C)(C)c1nc(C2CCC2)cc(N2CCN(CCCCc3nccc(O)n3)CC2)n1 = 71
• Cn1cnnc1SCCCN1CCN(c2cc(C(F)(F)F)nc(C3(C)CC3)n2)CC1 = 36
• Cc1nnc(SCCCN2CCN(c3cc(C4(C)CC4)nc(C(C)(C)C)n3)CC2)n1C = 124
• Cc1nnc(SCCCN2CCN(c3cc(C4CCC4)nc(C(C)(C)C)n3)CC2)n1C.O=C(O)/C=C/C(=O)O = 210
• Cl.Cn1nnnc1SCCCN1CCN(c2cc(C3CC3)nc(C(C)(C)C)n2)CC1 = 154
• CC(C)(C)c1nc(C2CCC2)cc(N2CCN(CCCCNC(=O)c3ccc(F)cc3)CC2)n1.Cl = 163
• Cn1c(SCCCN2CCN(c3cc(C4CC4)nc(C(C)(C)C)n3)CC2)nnc1-c1cnccn1 [Example 56, hydrochloride] = 109
• C[C@@H](COc1ncccn1)CN1CCN(c2cc(C3CCC3)nc(C(C)(C)C)n2)CC1.Cl = 78
• CC(C)(C)c1nc(C2CCC2)cc(N2CCN(CCCOc3ncccn3)CC2)n1.Cl = 107
• Cn1c(OCCCN2CCN(c3cc(C4CCC4)nc(C(C)(C)C)n3)CC2)nnc1-c1ccccc1 = 92
• CC(C)(C)c1nc(C2CCC2)cc(N2CCN(CCCCNC(=O)c3ccncc3)CC2)n1.Cl = 150
• C[C@@H](COc1ccnc(O)n1)CN1CCN(c2cc(C3CCC3)nc(C(C)(C)C)n2)CC1 = 72
• CC(C)(C)c1nc(C2CCC2)cc(N2CCN(CCCSc3nncs3)CC2)n1 = 54
• Cl.Cn1c(SCCCN2CCN(c3cc(C4CC4)nc(C(C)(C)C)n3)CC2)nnc1C(F)(F)F = 253
• Cn1c(SCCCN2CCN(c3cc(C4CCC4)nc(C(C)(C)C)n3)CC2)nnc1C1CC1.O=C(O)/C=C/C(=O)O = 250

Value source: patent US8202868B2
